experimental.parameters: in acetone, 308 K
test.readout: solubility (mole fraction)
Answers are plain numbers.

Task item: Need solubility (mole fraction), item COc1ccc2c(c1)c(CC(=O)O)c(C)n2C(=O)c1ccc(Cl)cc1
Reply: 0.0273

====

experimental.parameters: in water, 313.15 K
test.readout: solubility (mole fraction)
Answers are plain numbers.

INSERT INTO results (compound, meas_value) VALUES
  ('NCCS(=O)(=O)O', 0.0231),
  ('COc1cc(/C=C/C(=O)CC(=O)/C=C/c2ccc(O)c(OC)c2)ccc1O', '2e-07'),
  ('Cc1ncc(CO)c(CO)c1O.Cl', 0.0288),
  ('N[C@@H](Cc1cnc[nH]1)C(=O)O', 0.00613);

Hey, can you go through the list below and give me solubility (mole fraction) for every item?
1. Cc1nc2n(c(=O)c1CCN1CCC(c3noc4cc(F)ccc34)CC1)CCCC2
2. O=C(O)[C@@H]1C[C@@H](O)CN1
3. O=C1N2CN3C(=O)N4CN5C(=O)N6CN7C(=O)N8CN9C(=O)N%10CN%11C(=O)N%12CN1C1C2N2CN%13C(=O)N(CN%14C(=O)N(CN%15C(=O)N(CN%16C(=O)N(CN%17C(=O)N(CN1C2=O)C%12C%11%17)C%10C9%16)C8C7%15)C6C5%14)C4C3%13 (centres undefined)
4. N[C@@H](C(=O)O)c1ccc(O)cc1

Reply:
2e-07
0.0585
0.00336
0.00255

Hey, can you go through the list below and give me solubility (mole fraction) for every item?
1. NCCC(=O)N[C@@H](Cc1cnc[nH]1)C(=O)O
2. O=C1NC(=O)C(c2ccccc2)(c2ccccc2)N1
3. C[C@@H](O)[C@H]1C(=O)N2C(C(=O)[O-])=C(SC3Cn4cnc[n+]4C3)[C@H](C)[C@H]12 (some centres undefined)
4. CSCC[C@H](N)C(=O)O
5. C=CC1=C(C(=O)O)N2C(=O)[C@@H](NC(=O)/C(=N\OCC(=O)O)c3csc(N)n3)[C@H]2SC1
6. O=c1ccc2ccccc2o1

Reply:
1: 0.0287; 2: 1.91e-06; 3: 0.000649; 4: 0.00837; 5: 3.14e-05; 6: 0.000439

====

experimental.parameters: in water, 288.2 K
test.readout: solubility (mole fraction)
One number for each entry.

Task item: Need solubility (mole fraction), item C=C1CC[C@H](O)C/C1=C/C=C1\CCC[C@]2(C)[C@@H]([C@H](C)CCCC(C)C)CC[C@@H]12
Reply: 5.71e-07

====

experimental.parameters: in cyclohexane, 333.45 K
test.readout: solubility (mole fraction)

Task item: Need solubility (mole fraction), item Cc1ccccc1C(=O)O
Reply: 0.138

====

experimental.parameters: in DMAc, 303.15 K
test.readout: solubility (mole fraction)

Task item: Need solubility (mole fraction), item CCC1=C(C)CN(C(=O)NCCc2ccc(S(=O)(=O)NC(=O)NC3CCC(C)CC3)cc2)C1=O (stereo unspecified)
Reply: 0.0227

====

experimental.parameters: in THF, 313.15 K
test.readout: solubility (mole fraction)
One number for each entry.

Task item: Need solubility (mole fraction), item O=c1[nH]cc(F)c(=O)[nH]1
Reply: 0.000961

====

experimental.parameters: in ethyl acetate, 303.15 K
test.readout: solubility (mole fraction)

Task item: Need solubility (mole fraction), item CC(=O)OCC(=O)[C@@]12N=C(C)O[C@@H]1C[C@H]1[C@@H]3CCC4=CC(=O)C=C[C@]4(C)[C@H]3[C@@H](O)C[C@@]12C
Reply: 0.00399

====

So I've got a bunch of compounds here, and I need their solubility (mole fraction) values.
experimental.parameters: in ethanol, 323.2 K
Give bare numbers.

INSERT INTO measurements (smiles_str, meas_value) VALUES
  ('C[C@@H]1CC[C@H]2[C@@H](C)C(=O)O[C@@H]3O[C@@]4(C)CC[C@@H]1[C@]32OO4', 0.00801),
  ('c1ccc(P(c2ccccc2)c2ccccc2)cc1', 0.0279),
  ('C1=Cc2nc1c(-c1ccccc1)c1ccc([nH]1)c(-c1ccccc1)c1nc(c(-c3ccccc3)c3ccc([nH]3)c2-c2ccccc2)C=C1', '3.06e-06');

Proceeding to the next compound to report its solubility (mole fraction).
Task item: Need solubility (mole fraction), item Clc1ccc(-c2c3nc(c(-c4ccc(Cl)cc4)c4ccc([nH]4)c(-c4ccc(Cl)cc4)c4nc(c(-c5ccc(Cl)cc5)c5ccc2[nH]5)C=C4)C=C3)cc1
Reply: 2.25e-06

====

experimental.parameters: in acetone, 298 K
test.readout: solubility (mole fraction)

Task item: Need solubility (mole fraction), item COc1ccc2c(c1)c(CC(=O)O)c(C)n2C(=O)c1ccc(Cl)cc1
Reply: 0.0208

====

experimental.parameters: in ethanol, 288.15 K
test.readout: solubility (mole fraction)

Task item: Need solubility (mole fraction), item Clc1ccc(OCCCBr)cc1
Reply: 0.0488

====

experimental.parameters: in ethanol, 308.3 K
test.readout: solubility (mole fraction)
One number for each entry.

Task item: Need solubility (mole fraction), item c1ccc(P(c2ccccc2)c2ccccc2)cc1
Reply: 0.0117

====

experimental.parameters: in cyclohexane, 338.15 K
test.readout: solubility (mole fraction)

Task item: Need solubility (mole fraction), item Cc1ccccc1C(=O)O
Reply: 0.185

====

experimental.parameters: in 2-ethoxyethanol, 298.15 K
test.readout: solubility (mole fraction)
Give bare numbers.

Task item: Need solubility (mole fraction), item c1ccc2cc3ccccc3cc2c1
Reply: 0.00292

====

So I've got a bunch of compounds here, and I need their solubility (mole fraction) values.
experimental.parameters: in ethanol, 303.15 K
Answers are plain numbers.

// solved cases for solubility (mole fraction) follow
INSERT INTO assay_data (smiles_str, test_readout, meas_value) VALUES
  ('CC(=O)OCC(=O)[C@@]12N=C(C)O[C@@H]1C[C@H]1[C@@H]3CCC4=CC(=O)C=C[C@]4(C)[C@H]3[C@@H](O)C[C@@]12C', 'solubility (mole fraction)', 0.0024),
  ('CC1(C)S[C@@H]2[C@H](NC(=O)COc3ccccc3)C(=O)N2[C@H]1C(=O)[O-].[K+]', 'solubility (mole fraction)', 0.00207),
  ('Nc1cc(Cl)nnc1Cl', 'solubility (mole fraction)', 0.0171);

Proceeding to the next compound to report its solubility (mole fraction).
Task item: Need solubility (mole fraction), item Clc1ccc(OCCCBr)cc1
Reply: 0.142

====

experimental.parameters: in transcutol, 293.2 K
test.readout: solubility (mole fraction)
Answers are plain numbers.

Task item: Need solubility (mole fraction), item CC(=O)N1CCN(c2ccc(OC[C@@H]3CO[C@@](Cn4ccnc4)(c4ccc(Cl)cc4Cl)O3)cc2)CC1 (racemic)
Reply: 0.0116

====

experimental.parameters: in propylene glycol, 308.2 K
test.readout: solubility (mole fraction)
Answers are plain numbers.

Task item: Need solubility (mole fraction), item CC(=O)N1CCN(c2ccc(OC[C@@H]3CO[C@@](Cn4ccnc4)(c4ccc(Cl)cc4Cl)O3)cc2)CC1 (racemic)
Reply: 0.00348

====

experimental.parameters: in water, 308.18 K
test.readout: solubility (mole fraction)
Answers are plain numbers.

Task item: Need solubility (mole fraction), item N[C@@H](C(=O)O)c1ccc(O)cc1
Reply: 0.00241

====

So I've got a bunch of molecules here, and I need their solubility (mole fraction) values.
experimental.parameters: in water, 289.15 K

INSERT INTO results (smiles_str, meas_value) VALUES
  ('CC1(C)S[C@@H]2[C@H](N)C(=O)N2[C@H]1C(=O)O', 0.000173);

Task item: Need solubility (mole fraction), item C[N+](C)(C)CCOP(=O)([O-])OP(=O)([O-])OC[C@H]1O[C@@H](n2ccc(N)nc2=O)[C@H](O)[C@@H]1O.[Na+]
Reply: 0.0234

====

experimental.parameters: in dichloromethane, 283.15 K
test.readout: solubility (mole fraction)
Answers are plain numbers.

Task item: Need solubility (mole fraction), item O=P(Oc1ccccc1)(Oc1ccccc1)N1CCN(P(=O)(Oc2ccccc2)Oc2ccccc2)CC1
Reply: 0.00567

====

experimental.parameters: in n-propanol, 333.15 K
test.readout: solubility (mole fraction)
Numbers only.

Task item: Need solubility (mole fraction), item COc1ccc([C@@H]2CC(=O)c3c(O)cc(O[C@@H]4O[C@H](CO[C@@H]5O[C@@H](C)[C@H](O)[C@@H](O)[C@H]5O)[C@@H](O)[C@H](O)[C@H]4O)cc3O2)cc1O
Reply: 0.000425

====

experimental.parameters: in dichloromethane, 308.15 K
test.readout: solubility (mole fraction)
Numbers only.

Task item: Need solubility (mole fraction), item O=P(Oc1ccccc1)(Oc1ccccc1)N1CCN(P(=O)(Oc2ccccc2)Oc2ccccc2)CC1
Reply: 0.0133

====

experimental.parameters: in water, 273.2 K
test.readout: solubility (mole fraction)
Answers are plain numbers.

Task item: Need solubility (mole fraction), item C=C1CC[C@H](O)C/C1=C/C=C1\CCC[C@]2(C)[C@@H]([C@H](C)CCCC(C)C)CC[C@@H]12
Reply: 1.97e-07
